assay: RP-HPLC retention time as measure of hydrophilicity/hydrophobicity; type: physicochemical; conditions: chromatographic, Cosmosil 5C18-AR-II 4.6 x 150 mm, linear gradient 30–70% MeCN/H2O (0.1% TFA) for 30 min, 1 mL/min, UV 220 nm
Starred links: 1 amine or outer side, 2 acyl side, 3 side chain; linkers in the order of their positions; H or OH if unused. Positions of bridges follow the written chain, without caps; N, C: chain ends. Non-standard residues stand in square brackets, D forms with d. Residues, ends and D or L forms follow the SMILES beside them. X12 = CCCCCCCCCCC(=O)N[C@H](C(=O)NC[C@H](CC(=O)[*:1])N[*:2])[C@@H](C)O; X2 = CCCCCCCCNC(=O)[C@H](O)[C@@H](O)C(=O)NC[C@@H](CC(=O)[*:1])N[*:2]; X10 = CCCCCCCCCCCC(=O)N[C@@H](CO)C(=O)NC[C@@H](CC(=O)[*:1])N[*:2]; X13 = CCCCCCCCCCC(=O)N[C@@H](CO)C(=O)NC[C@H](CC(=O)[*:1])N[*:2]; X5 = CCCCCCCCCCCC(=O)N[C@@H](CO)C(=O)NC[C@H](CC(=O)[*:1])N[*:2]
measured quantity: tR (min)
Give the number; min is assumed, so skip it.

Completed entries (count: 4):
CCCCCCCCCCCC(=O)N[C@@H](CO)C(=O)NC[C@@H]1CC(=O)N[C@H](CO)C(=O)N[C@H](Cc2ccc(O)cc2)C(=O)N[C@H](CC(N)=O)C(=O)NCC(=O)N[C@@H](CC(N)=O)C(=O)N[C@@H](CO)C(=O)N[C@@H](CC(N)=O)C(=O)N1 [Compound 3b] ([dS][dY][dN]GNSN; linker N-C via X5) : 11.7
CCCCCCCCNC(=O)[C@H](O)[C@@H](O)C(=O)NC[C@H]1CC(=O)N[C@H](CO)C(=O)N[C@H](Cc2ccc(O)cc2)C(=O)N[C@H](CC(N)=O)C(=O)NCC(=O)N[C@@H](CC(N)=O)C(=O)N[C@@H](CO)C(=O)N[C@@H](CC(N)=O)C(=O)N1 [Compound 5b] ([dS][dY][dN]GNSN; linker N-C via X2) : 6.4
CCCCCCCCCCC(=O)N[C@@H](CO)C(=O)NC[C@@H]1CC(=O)N[C@H](CO)C(=O)N[C@H](Cc2ccc(O)cc2)C(=O)N[C@H](CC(N)=O)C(=O)NCC(=O)N[C@@H](CC(N)=O)C(=O)N[C@@H](CO)C(=O)N[C@@H](CC(N)=O)C(=O)N1 [Compound 3a] ([dS][dY][dN]GNSN; linker N-C via X13) : 9.3
CCCCCCCCCCC(=O)N[C@H](C(=O)NC[C@@H]1CC(=O)N[C@H](CO)C(=O)N[C@H](Cc2ccc(O)cc2)C(=O)N[C@H](CC(N)=O)C(=O)NCC(=O)N[C@@H](CC(N)=O)C(=O)N[C@@H](CO)C(=O)N[C@@H](CC(N)=O)C(=O)N1)[C@@H](C)O [Compound 4a] ([dS][dY][dN]GNSN; linker N-C via X12) : 10.4

Shifting focus to the molecule that follows.
Per the records, this molecule ( CCCCCCCCCCCC(=O)N[C@@H](CO)C(=O)NC[C@H]1CC(=O)N[C@H](CO)C(=O)N[C@H](Cc2ccc(O)cc2)C(=O)N[C@H](CC(N)=O)C(=O)NCC(=O)N[C@@H](CC(N)=O)C(=O)N[C@@H](CO)C(=O)N[C@@H](CC(N)=O)C(=O)N1 [Compound 3f] ([dS][dY][dN]GNSN; linker N-C via X10) ) has tR equal to 11.8
